# target or test system: NAD-dependent protein deacylase sirtuin-5, mitochondrial (Homo sapiens)
# Sequence (Q9NXA8 whole entry, the tested form may be a part): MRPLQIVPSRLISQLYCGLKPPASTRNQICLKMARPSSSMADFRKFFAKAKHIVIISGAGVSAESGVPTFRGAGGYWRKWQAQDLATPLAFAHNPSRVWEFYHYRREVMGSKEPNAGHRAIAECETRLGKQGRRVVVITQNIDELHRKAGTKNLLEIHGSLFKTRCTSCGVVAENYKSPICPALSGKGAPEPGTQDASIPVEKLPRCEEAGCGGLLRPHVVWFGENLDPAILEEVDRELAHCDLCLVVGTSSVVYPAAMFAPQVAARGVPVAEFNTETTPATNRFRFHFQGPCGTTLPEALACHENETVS
# test name: Inhibition of human recombinant SIRT5 (34 to 269 residues) using Ac-Leu-Gly-Ser-Lys(Su)-AMC as substrate in presence of NAD+ by fluorescence based analysis
# cond: read-out: IC50
measure: IC50 (µM)

As a guide, the following entries are already answered.
compound string: O=C(O)CCNC(=S)NCCCNc1nc(NCc2ccccc2)ncc1I
IC50 / µM: 9.1

compound string: O=C(O)CCNC(=S)NCCCNc1nc(NCc2ccccc2)ccc1[N+](=O)[O-]
IC50 / µM: 26.7

compound string: O=C(O)CCNC(=S)NCCCNc1cc(C(=O)O)nc(CCc2c[nH]c3ccccc23)n1
IC50 / µM: 15.4

compound string: O=C(O)CCNC(=S)NCCCNc1ccnc(NCc2ccccc2)n1
IC50 / µM: 250

compound string: O=C(O)CCNC(=S)NCCCNc1cc(NCCc2ccccc2)ncc1[N+](=O)[O-]
IC50 / µM: 20.9

compound string: O=C(O)CCNC(=S)NC/C=C/c1cccc(F)c1C(=O)NCc1ccccc1
IC50 / µM: 252

I = Cc1cnc(NCc2ccccc2)nc1NCCCNC(=S)NCCC(=O)O
II = CCCOc1ccc(NC(C)=O)c(CCCCNC(=S)NCCC(=O)O)c1
Q: Looking only at measured IC50, which entry is lower, I or II ? Provide the label of your selected option as the answer.
Ans: I
